molecular target: mouse TLR7 (Mus musculus, UniProt P58681); construct: expresses full-length mouse TLR7 and secretory SEAP reporter gene; host or cells: HEK-Blue mTLR7 cell line; assay: Mouse TLR7 reporter gene assay (Test 2); type: cell-based; details: Table 8, Examples; half-maximal SEAP induction, HEK-Blue mTLR7 cell line, overnight 37° C., 0.1% DMSO
Sequence (P58681 27-1050): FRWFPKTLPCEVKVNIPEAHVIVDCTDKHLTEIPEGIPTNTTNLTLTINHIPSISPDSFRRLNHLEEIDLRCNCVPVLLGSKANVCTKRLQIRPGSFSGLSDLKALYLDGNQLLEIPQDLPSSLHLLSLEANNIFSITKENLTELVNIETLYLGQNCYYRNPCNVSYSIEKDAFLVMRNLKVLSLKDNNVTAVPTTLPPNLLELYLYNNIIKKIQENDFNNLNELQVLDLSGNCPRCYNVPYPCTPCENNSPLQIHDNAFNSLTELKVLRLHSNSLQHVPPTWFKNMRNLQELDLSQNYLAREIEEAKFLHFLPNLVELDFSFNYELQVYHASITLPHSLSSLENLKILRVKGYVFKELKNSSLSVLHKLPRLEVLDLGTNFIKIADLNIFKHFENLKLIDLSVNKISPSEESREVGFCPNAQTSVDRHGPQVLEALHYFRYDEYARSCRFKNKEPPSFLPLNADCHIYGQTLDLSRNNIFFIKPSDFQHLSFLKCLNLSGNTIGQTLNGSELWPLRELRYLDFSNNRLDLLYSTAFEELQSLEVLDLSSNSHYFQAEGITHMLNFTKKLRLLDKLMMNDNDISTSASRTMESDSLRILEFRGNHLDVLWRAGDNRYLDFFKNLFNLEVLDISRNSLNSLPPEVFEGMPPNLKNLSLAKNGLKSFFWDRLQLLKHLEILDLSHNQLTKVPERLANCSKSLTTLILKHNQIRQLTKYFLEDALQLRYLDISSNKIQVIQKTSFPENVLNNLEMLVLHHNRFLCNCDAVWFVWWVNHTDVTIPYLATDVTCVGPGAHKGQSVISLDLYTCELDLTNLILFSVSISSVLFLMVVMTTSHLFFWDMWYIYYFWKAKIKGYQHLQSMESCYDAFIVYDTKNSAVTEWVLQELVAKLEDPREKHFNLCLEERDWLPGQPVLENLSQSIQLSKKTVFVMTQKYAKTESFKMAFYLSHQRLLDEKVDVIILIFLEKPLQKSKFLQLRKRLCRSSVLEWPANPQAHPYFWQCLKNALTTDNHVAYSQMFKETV
quantity.name: pEC50
Remember the convention: pEC50 equals -log10 of concentration in molar.

I would be grateful if you could share the reported pEC50 for CCCCOc1nc(N)c2[nH]c(=O)n(Cc3ccc(CN(C)CCOCCOCCOCCOCCO)nc3)c2n1 [Example 2] . 6.29

# iterate: CCCCOc1nc(N)c2[nH]c(=O)n(Cc3ccc(CN(C)CCOCCOCCOCCOCCO)cn3)c2n1 [Example 1] 5.84

# iterate: CCCCOc1nc(N)c2[nH]c(=O)n(Cc3ccc(CN(C)CCOCCOCCOCCOCCO)cc3)c2n1 [Example 3] 7.38

----------
target: human TLR7 (Homo sapiens, UniProt Q9NYK1); construct: expresses full-length human TLR7 and secretory alkaline phosphatase (SEAP) reporter gene; host or cells: TLR7/NF-κB/SEAPorter HEK293 cell line; assay: Human TLR7 reporter gene assay (Test 1); type: cell-based; conditions: Table 6, Examples; half-maximal SEAP induction, TLR7/NF-κB/SEAPorter HEK293 cell line, overnight 37° C., 0.1% DMSO
Sequence (Q9NYK1 27-1049): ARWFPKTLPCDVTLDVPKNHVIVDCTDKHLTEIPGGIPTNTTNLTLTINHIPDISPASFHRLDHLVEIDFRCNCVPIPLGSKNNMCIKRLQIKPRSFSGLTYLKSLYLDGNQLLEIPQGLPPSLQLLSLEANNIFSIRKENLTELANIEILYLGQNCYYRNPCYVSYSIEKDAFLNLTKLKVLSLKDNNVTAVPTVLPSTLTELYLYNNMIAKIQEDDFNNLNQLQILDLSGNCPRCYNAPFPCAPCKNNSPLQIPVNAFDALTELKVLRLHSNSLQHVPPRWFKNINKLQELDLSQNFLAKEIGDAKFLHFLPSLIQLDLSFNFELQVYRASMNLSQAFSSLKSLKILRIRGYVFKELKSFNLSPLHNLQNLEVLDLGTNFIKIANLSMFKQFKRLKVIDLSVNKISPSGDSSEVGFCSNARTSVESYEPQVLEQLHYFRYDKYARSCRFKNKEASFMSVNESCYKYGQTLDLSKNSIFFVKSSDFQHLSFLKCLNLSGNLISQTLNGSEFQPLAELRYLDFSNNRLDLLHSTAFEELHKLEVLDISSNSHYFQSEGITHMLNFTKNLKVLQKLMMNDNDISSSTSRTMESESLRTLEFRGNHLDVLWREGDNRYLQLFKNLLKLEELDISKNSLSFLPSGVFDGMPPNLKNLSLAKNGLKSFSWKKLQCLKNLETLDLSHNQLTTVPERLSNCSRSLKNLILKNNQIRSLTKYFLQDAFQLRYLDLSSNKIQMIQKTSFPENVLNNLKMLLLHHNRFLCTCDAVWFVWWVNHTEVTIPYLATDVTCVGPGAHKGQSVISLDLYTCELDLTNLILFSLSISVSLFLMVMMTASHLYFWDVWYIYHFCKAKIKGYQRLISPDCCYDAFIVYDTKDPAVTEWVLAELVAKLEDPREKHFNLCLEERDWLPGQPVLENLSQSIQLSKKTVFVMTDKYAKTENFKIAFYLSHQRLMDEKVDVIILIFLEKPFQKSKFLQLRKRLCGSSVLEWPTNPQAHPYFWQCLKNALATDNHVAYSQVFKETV
Assign EC50 to each entry below.
Could you give me the number in nM? Just the number is fine.

# get_value(readout= EC50, system= human TLR7 (Homo sapiens, UniProt Q9NYK1)) for "COCCOc1nc(N)c2[nH]c(=O)n(Cc3ccc(CN(C)CCOCCOCCOCCOCCO)cc3)c2n1" 5300

# iterate: "CCCCOc1nc(N)c2[nH]c(=O)n(Cc3ccc(CN(C)CCOCCOCCOCCOCCO)cn3)c2n1" 150

# iterate: "CCCCOc1nc(N)c2[nH]c(=O)n(Cc3ccc(CN(C)CCOCCOCCOCCOCCO)cc3)c2n1" 24

# iterate: "CCCCOc1nc(N)c2[nH]c(=O)n(Cc3ccc(CN(C)CCOCCOCCOCCOCCO)nc3)c2n1" 774

----------
biological target: human TLR7 (Homo sapiens); construct: expresses full-length human TLR7 and secretory alkaline phosphatase (SEAP) reporter gene; host or cells: TLR7/NF-κB/SEAPorter HEK293 cell line; experiment: Human TLR7 reporter gene assay (Test 1); type: cell-based; details: Table 7, Reference examples; half-maximal SEAP induction, TLR7/NF-κB/SEAPorter HEK293 cell line, overnight 37° C., 0.1% DMSO
quantity.name: pEC50
Remember the convention: pEC50 equals -log10 of concentration in molar.

I would be grateful if you could share the reported pEC50 for CCCCOc1nc(N)c2[nH]c(=O)n(Cc3ccc(CNC)cc3)c2n1 [Reference example 14, reference compound] . 7.92

# iterate: CCCCOc1nc(N)c2[nH]c(=O)n(Cc3ccc(CNC)nc3)c2n1 [Reference example 12, reference compound] 6.24

# iterate: CCCCOc1nc(N)c2[nH]c(=O)n(Cc3ccc(CNC)cn3)c2n1 [compound 13, reference compound] 7.09
